Tested on: SR leukemia
Assay: NCI tumour cell line growth inhibition, 48 h; in the data active = GI50 below about 0.43 µM; inactive = the rest
Lab note: assign the record to one of active, inactive

Asked: Hi team, can someone confirm the assay call for CC1=CC(=Nc2ccc(N(CCCl)CCCl)cc2)C=C(C)C1=O ?
Given back: active

Asked: Hi team, can someone confirm the assay call for Oc1ccc2ccccc2c1N=Nc1nccs1 ?
Given back: active

Asked: Hi team, can someone confirm the assay call for CCOc1cc2c(Cl)ncnc2c(OCC)c1OCC ?
Given back: inactive

Asked: Hi team, can someone confirm the assay call for O=C(N/N=C/c1ccccc1O)c1ccccc1Nc1ccnc(C(F)(F)F)c1 ?
Given back: active

Asked: Hi team, can someone confirm the assay call for CC(=O)OC[C@]1(C)C=C2C(=O)[C@](C)(O)C3(CC3)C(C)=C2[C@H]1O ?
Given back: active

Asked: Hi team, can someone confirm the assay call for FC(F)(F)c1cccc(Nc2nccc(-c3cnn4nc(-c5ccccc5)ccc34)n2)c1 ?
Given back: inactive

Asked: Hi team, can someone confirm the assay call for OCc1c[nH]c2ccccc12 ?
Given back: inactive

Asked: Hi team, can someone confirm the assay call for OCC(O)CC[CH2][Sn]([Br])([c]1ccccc1)[c]1ccccc1 (stereo unspecified) ?
Given back: inactive

Asked: Hi team, can someone confirm the assay call for Nc1cc(N)c2nc(-c3ccccc3)c(Nc3ccc(Cl)c(Cl)c3)nc2c1 ?
Given back: inactive

Asked: Hi team, can someone confirm the assay call for COc1cc(C2NC(=O)c3ccccc3N2)ccc1OCCCCCOc1c(OC)cc(C2=NOC(c3cc(OC)c(OC)c(OC)c3)C2)cc1OC (stereo unspecified) ?
Given back: inactive

Asked: Hi team, can someone confirm the assay call for Oc1ccc(CN2CCC(N3CCCCC3)CC2)c2cccnc12 ?
Given back: inactive

###

System: ACHN renal
Test: NCI tumour cell line growth inhibition, 48 h
Kindly state TGI for each of the entries shown.

Asked: Tell me the measured TGI of CNC(=O)N(CCC#N)[C@H]1CCCC[C@@H]1N(C(=O)NC)c1ccccc1 , please.
Given back: > 100 µM

Asked: Tell me the measured TGI of O=C(CSc1n[nH]c(=O)[nH]c1=O)NNC(=O)c1cccc2nc3ccccc3nc12 , please.
Given back: > 100 µM

Asked: Tell me the measured TGI of Cc1nc(C)c(Cc2ccccc2)o1 , please.
Given back: > 100 µM

Asked: Tell me the measured TGI of O/N=C/C1c2ccccc2-c2ccccc21 , please.
Given back: 32.2 µM

Asked: Tell me the measured TGI of Nc1ccc(S(=O)(=O)Nc2nc3ccccc3nc2N2CCCCC2)cc1 , please.
Given back: > 100 µM

Asked: Tell me the measured TGI of NC(=O)C(=O)N/N=C(\CC1(O)C(=O)Nc2ccccc21)c1ccc2ccccc2c1 (stereo unspecified) , please.
Given back: > 100 µM

###

Tested on: NCI-H460 lung
Assay: NCI tumour cell line growth inhibition, 48 h
Kindly state TGI for each of the entries shown.

Asked: Tell me the measured TGI of Oc1ccc(CN2CCC(N3CCCCC3)CC2)c2cccnc12 , please.
Given back: > 100 µM

Asked: Tell me the measured TGI of O=c1c2cc([N+](=O)[O-])ccc2sc2ccsc12 , please.
Given back: > 100 µM

Asked: Tell me the measured TGI of COc1ccc(-c2cnnc3c(-c4cccc(C(F)(F)F)c4)cnn23)cc1 , please.
Given back: > 100 µM

Asked: Tell me the measured TGI of NC(=O)C(=O)N/N=C(\CC1(O)C(=O)Nc2ccccc21)c1ccc2ccccc2c1 (stereo unspecified) , please.
Given back: > 100 µM

Asked: Tell me the measured TGI of COc1ccc(NC2=CC(=O)C(=O)c3ccccc32)nn1 , please.
Given back: 3.49 µM

Asked: Tell me the measured TGI of C=C1C(=O)O[C@H]2[C@H]1CC/C(COC(=O)c1ccc3ccccc3c1)=C\CC[C@@]1(C)O[C@@H]21 , please.
Given back: 3.75 µM

Asked: Tell me the measured TGI of OC1(c2ccc(Cl)cc2)c2ccc3ccccc3c2C2=N[C@H]3CCCC[C@@H]3N21 (stereo partly specified) , please.
Given back: > 100 µM

Asked: Tell me the measured TGI of CC1(C)OCC2OC3([C@H]4OC(C)(C)O[C@@H]4CO)OC(C)(C)OC3C2O1 (stereo partly specified) , please.
Given back: > 100 µM

Asked: Tell me the measured TGI of COc1ccc(-c2cc(=O)c3ccc(O)cc3o2)cc1OC , please.
Given back: > 100 µM

Asked: Tell me the measured TGI of CC(C)(C)C1C=C(Sc2ccccc2)C(=O)O1 (stereo unspecified) , please.
Given back: > 100 µM

Asked: Tell me the measured TGI of COC12C=C(C)C(CC1)CC2C(=O)O (stereo unspecified) , please.
Given back: > 100 µM

Asked: Tell me the measured TGI of C[C@@H]1OC(O)[C@@H](F)[C@H](O)[C@@H]1O (stereo partly specified) , please.
Given back: > 100 µM

Asked: Tell me the measured TGI of CC1(C(=O)O)CCCC1C(=O)O (stereo unspecified) , please.
Given back: > 100 µM

Asked: Tell me the measured TGI of Nc1nc(Cl)c2ncn(Cc3ccc(C45CC6CC(CC(C6)C4)C5)c(O)c3)c2n1 , please.
Given back: 15.6 µM

Asked: Tell me the measured TGI of O=C(Cc1ccccc1)NN1C(=O)/C(=C\c2ccc([N+](=O)[O-])cc2)SC1=Nc1ccccc1 , please.
Given back: > 100 µM

Asked: Tell me the measured TGI of O=C(c1ccccc1)c1nnc(C(=O)c2ccccc2)nn1 , please.
Given back: > 344 µM

Asked: Tell me the measured TGI of O=C1O[C@@H](c2ccc3c(c2)OCO3)C2C(=O)O[C@@H](c3ccc4c(c3)OCO4)C12 (stereo partly specified) , please.
Given back: > 100 µM

Asked: Tell me the measured TGI of O=C(N/N=C/c1cc(Br)cc(Br)c1[O-])c1ccccc1O.O=C(N/N=C/c1cc(Br)cc(Br)c1[O-])c1ccccc1O.[Fe+2] , please.
Given back: 22.2 µM

Asked: Tell me the measured TGI of FC(F)(F)c1ccc2nc3n(c2c1)C(c1c(Cl)cccc1Cl)SC3 (stereo unspecified) , please.
Given back: 35.6 µM

Asked: Tell me the measured TGI of CCC[CH2][Sn]([CH2]CCC)([O]C(=O)c1cccnc1SC)[O]C(=O)c1cccnc1SC , please.
Given back: 3.47 µM

Asked: Tell me the measured TGI of FC(F)(F)c1cccc(Nc2nccc(-c3cnn4nc(-c5ccccc5)ccc34)n2)c1 , please.
Given back: 11.1 µM

###

Kindly state TGI for each of the entries shown.
Tested on: CAKI-1 renal
Assay: NCI tumour cell line growth inhibition, 48 h
Numeric answer only, unit µM assumed.

Asked: Tell me the measured TGI of C=C1C(=O)O[C@H]2[C@H]1CC/C(COC(=O)c1ccc3ccccc3c1)=C\CC[C@@]1(C)O[C@@H]21 , please.
Given back: 2.46

Asked: Tell me the measured TGI of CC[CH2][Sn]([CH2]CC)([O]C(=O)c1cccnc1SC)[O][Sn]([CH2]CC)([CH2]CC)[O]C(=O)c1cccnc1SC , please.
Given back: 0.801

Asked: Tell me the measured TGI of O=C(N/N=C/c1ccccc1O)c1ccccc1Nc1ccnc(C(F)(F)F)c1 , please.
Given back: 10.3

Asked: Tell me the measured TGI of CCC(=O)Oc1c2ccsc2c(OC(=O)CC)c2ccsc12 , please.
Given back: 6.13

###

Tested on: NCI/ADR-RES ovarian
Assay: NCI tumour cell line growth inhibition, 48 h
Assay readout: TGI (µM)
Numeric answer only, unit µM assumed.

Asked: Tell me the measured TGI of O=C(N/N=C/c1ccccc1O)c1ccccc1Nc1ccnc(C(F)(F)F)c1 , please.
Given back: 30.1

Asked: Tell me the measured TGI of C=C1C(=O)O[C@@]23C1CC[C@@H](C)C2CC[C@@]1(C)OC31 (stereo not given in full) , please.
Given back: 48.4

###

System: COLO 205 colon
Assay: NCI tumour cell line growth inhibition, 48 h
Kindly state TGI for each of the entries shown.

Asked: Tell me the measured TGI of COc1ccc(-c2c(C#N)c(N)nc3c2CCS(=O)(=O)c2ccccc2-3)cc1 , please.
Given back: > 100 µM

Asked: Tell me the measured TGI of CC1(C)OCC2OC3([C@H]4OC(C)(C)O[C@@H]4CO)OC(C)(C)OC3C2O1 (stereo partly specified) , please.
Given back: > 100 µM

Asked: Tell me the measured TGI of c1ccc2c3c(c(N4CCOCC4)nc2c1)CCCC3 , please.
Given back: 46.5 µM

Asked: Tell me the measured TGI of C=C1C(=O)O[C@@]23C1CC[C@@H](C)C2CC[C@@]1(C)OC31 (stereo partly specified) , please.
Given back: 3.68 µM

Asked: Tell me the measured TGI of CC(=S)N=Cc1c(O)cc(C)oc1=O , please.
Given back: > 100 µM

Asked: Tell me the measured TGI of O=C(O)C(CO)NC(=O)n1c2ccccc2c2ccccc21 (stereo unspecified) , please.
Given back: > 100 µM
